# System: Eubacterium rectale
# test name: growth AUC relative to DMSO control (median of replicates) (fraction); higher = more growth (less inhibition), active = hit call of the paper
# measurement conditions: 20 µM; 24 h
# if value of growth AUC reaches 1, tag class 1; if it stays below, tag class 0

Check out these entries, answers already filled in.
{"compound": "CCCNCCOc1c(Cl)cc(Cl)cc1Cl", "class name": "class 0"}
{"compound": "CCOCCOC(=O)C(C)Oc1ccc(Oc2ncc(C(F)(F)F)cc2Cl)cc1 (configuration not stated)", "class name": "class 1"}
{"compound": "CCCOC(=O)c1ccc(C(=O)OCCC)nc1", "class name": "class 1"}
{"compound": "CNC(=O)Sc1ccc(OS(C)(=O)=O)cc1", "class name": "class 1"}
{"compound": "CC(C)N(C)S(=O)(=O)NC(=O)c1cc(-n2c(=O)cc(C(F)(F)F)[nH]c2=O)c(F)cc1Cl", "class name": "class 0"}
{"compound": "CC(C)N(C(=O)C(=O)O)c1ccc(F)cc1", "class name": "class 1"}
{"compound": "O=[N+](Nc1ccccc1)c1ccccc1", "class name": "class 0"}

Next item in the queue.
Enquiry: Is it the case that CN(C)C(=O)SCCCCOc1ccccc1 has growth AUC reaching or exceeding 1?
Return: class 1

* * *

# System: Roseburia intestinalis
# test name: growth AUC relative to DMSO control (median of replicates) (fraction); higher = more growth (less inhibition), active = hit call of the paper
# measurement conditions: 20 µM; 24 h
Quick list: growth AUC per entry.
Provide a numeric answer; units are not to be included.

Solved cases (10 shown):
{"compound": "COC(=O)c1ccc(C(=O)OC)cc1", "system": "Roseburia intestinalis", "growth AUC": 0.997}
{"compound": "CC(C)C(O)(c1ccc(OC(F)(F)F)cc1)c1cncnc1 (stereo unspecified)", "system": "Roseburia intestinalis", "growth AUC": 1.04}
{"compound": "CCC(C)Nc1nc(N)nc(Cl)n1 (stereo unspecified)", "system": "Roseburia intestinalis", "growth AUC": 0.998}
{"compound": "COCCCNc1nc(NC(C)C)nc(SC)n1", "system": "Roseburia intestinalis", "growth AUC": 0.995}
{"compound": "CCCCCCCCc1c(CC)nc2ncnn2c1N", "system": "Roseburia intestinalis", "growth AUC": 0.948}
{"compound": "Br[C@@H]1CC[C@H](Br)[C@H](Br)CC[C@@H](Br)[C@@H](Br)CC[C@H]1Br", "system": "Roseburia intestinalis", "growth AUC": 0.962}
{"compound": "CC1CN(C2CCCCCCCCCCC2)CC(C)O1 (mixture of isomers)", "system": "Roseburia intestinalis", "growth AUC": 0.992}
{"compound": "COc1cc(OC)nc(NC(=O)NS(=O)(=O)Nc2ccccc2C(=O)N(C)C)n1", "system": "Roseburia intestinalis", "growth AUC": 0.981}
{"compound": "COC(=O)c1ccc(C(F)(F)F)nc1S(=O)(=O)[N-]C(=O)Nc1nc(OC)cc(OC)n1.[Na+]", "system": "Roseburia intestinalis", "growth AUC": 0.941}
{"compound": "O=C1NC(=O)c2ccccc21", "system": "Roseburia intestinalis", "growth AUC": 1.11}

Please turn your attention to the following entry.
Enquiry: Give its growth AUC value. Item: Cc1cc(C)c(C2=C(O)C3(CCCC3)OC2=O)c(C)c1
Return: 1.02
